Assay: in vivo
Design: species or system mice
Details: mouse, iv, 3.4 MBq, total radioactivity, Biodistribution, Lung
ASSAY ENDPOINT: tissue uptake at 2 h (%ID/g)
Could you give me the number in %ID/g? Just the number is fine.

Please fill in: tissue uptake at 2 h reported for CC(=O)NC(CCCCNC(=O)CN1CCN(CC(=O)O)CCN(CC(=O)O)CCN(CC(=O)O)CC1)C(=O)N1CCCC1C(=O)N(C)C(CCCNC(=N)N)C(=O)NC(CCCNC(=N)N)C(=O)N1CCCC1C(=O)NC(Cc1ccc(O)cc1)C(=O)NC(C(=O)NC(CC(C)C)C(=O)O)C(C)(C)C (stereo not shown) [^68Ga-DOTA-NT-20.3, metal not drawn] = 0.75

###

Test: in vivo
Set-up: species or system mice
Details: mouse, iv, 3.4 MBq, total radioactivity, Biodistribution, Blood
ASSAY ENDPOINT: tissue uptake at 0.25 h (%ID/g)
Report as a plain number; the unit %ID/g is understood.

Measured tissue uptake at 0.25 h of CC(=O)NC(CCCCNC(=O)CN1CCN(CC(=O)O)CCN(CC(=O)O)CCN(CC(=O)O)CC1)C(=O)N1CCCC1C(=O)N(C)C(CCCNC(=N)N)C(=O)NC(CCCNC(=N)N)C(=O)N1CCCC1C(=O)NC(Cc1ccc(O)cc1)C(=O)NC(C(=O)NC(CC(C)C)C(=O)O)C(C)(C)C (stereo not shown) [^68Ga-DOTA-NT-20.3, metal not drawn] : 4.15

###

Assay: in vivo
Set-up: species or system mice
Conditions: mouse, iv, 3.4 MBq, total radioactivity, Biodistribution, Brain
ASSAY ENDPOINT: tissue uptake at 5 min (%ID/g)
Write the value in %ID/g as a bare number.

The molecule CC(=O)NC(CCCCNC(=O)CN1CCN(CC(=O)O)CCN(CC(=O)O)CCN(CC(=O)O)CC1)C(=O)N1CCCC1C(=O)N(C)C(CCCNC(=N)N)C(=O)NC(CCCNC(=N)N)C(=O)N1CCCC1C(=O)NC(Cc1ccc(O)cc1)C(=O)NC(C(=O)NC(CC(C)C)C(=O)O)C(C)(C)C (stereo not shown) [^68Ga-DOTA-NT-20.3, metal not drawn] showed tissue uptake at 5 min equal to 1.91

###

Test: in vivo
Design: species or system mice
Details: mouse, iv, 3.4 MBq, total radioactivity, Biodistribution, Heart
ASSAY ENDPOINT: tissue uptake at 1 h (%ID/g)
Report as a plain number; the unit %ID/g is understood.

// tissue uptake at 1 h lookup, compound = CC(=O)NC(CCCCNC(=O)CN1CCN(CC(=O)O)CCN(CC(=O)O)CCN(CC(=O)O)CC1)C(=O)N1CCCC1C(=O)N(C)C(CCCNC(=N)N)C(=O)NC(CCCNC(=N)N)C(=O)N1CCCC1C(=O)NC(Cc1ccc(O)cc1)C(=O)NC(C(=O)NC(CC(C)C)C(=O)O)C(C)(C)C (stereo not shown) [^68Ga-DOTA-NT-20.3, metal not drawn] , result: 1.57

###

Assay: in vivo
Parameters: species or system mice
Conditions: mouse, iv, 3.4 MBq, total radioactivity, Biodistribution, Intestine
ASSAY ENDPOINT: tissue uptake at 0.25 h (%ID/g)
Numeric only. Scale: %ID/g

Looking up CC(=O)NC(CCCCNC(=O)CN1CCN(CC(=O)O)CCN(CC(=O)O)CCN(CC(=O)O)CC1)C(=O)N1CCCC1C(=O)N(C)C(CCCNC(=N)N)C(=O)NC(CCCNC(=N)N)C(=O)N1CCCC1C(=O)NC(Cc1ccc(O)cc1)C(=O)NC(C(=O)NC(CC(C)C)C(=O)O)C(C)(C)C (stereo not shown) [^68Ga-DOTA-NT-20.3, metal not drawn] , I see its tissue uptake at 0.25 h listed as 2.31
